Assay: High-throughput (HT) solubility determination
Type: physicochemical
Conditions: phosphate buffered saline (PBS) pH 2, aqueous buffer, kinetic from dmso stock; PBS pH 2, shaken 24 hours at 25° C.; read-out: pH 2 solubility
measurementKind: solubility kinetic at 24 h (µM)

{"compound": "COC(=O)Nc1ccc2c(c1)NC(=O)C(C)(C)CCC[C@H](c1ccc(-c3cc(F)ccc3OC(F)F)c[n+]1[O-])c1nc-2c(C(=O)O)[nH]1.N (single isomer, unassigned)", "solubility kinetic at 24 h, µM": 145}
{"compound": "CCOC(=O)c1[nH]c2nc1-c1ccc(NC(=O)OC)cc1NC(=O)C(C)(C)CCC[C@@H]2c1ccc(-c2cc(F)ccc2OC(F)F)c[n+]1[O-]", "solubility kinetic at 24 h, µM": 171}
{"compound": "COC(=O)Nc1ccc2c(c1)NC(=O)C(C)(C)CCC[C@H](c1ccc(-c3cc(F)ccc3-n3cc(C(F)(F)F)cn3)c[n+]1[O-])c1nc-2c(C(=O)OC)[nH]1", "solubility kinetic at 24 h, µM": 163}
{"compound": "CCOC(=O)c1[nH]c2nc1-c1ccc(NC(=O)OC)cc1NC(=O)C(C)(C)CCC[C@@H]2c1ccc(-c2cc(Cl)cnc2OC(F)F)c[n+]1[O-]", "solubility kinetic at 24 h, µM": 137}
{"compound": "COC(=O)Nc1ccc2c(c1)NC(=O)C(C)(C)CCC[C@H](c1ccc(-c3cccc(Cl)c3F)c[n+]1[O-])c1nc-2c(C(=O)O)[nH]1", "solubility kinetic at 24 h, µM": 125}
